Here is a set of molecules with reported IC50 for Tyrosine-protein kinase JAK2 (Homo sapiens), compiled from the literature.

Recorded results for 2 molecules are shown here.
CHEMICAL_STRING	IC50
COc1ccc(OC[C@H](O)CNc2cc[nH]c(=O)c2-c2nc3cc4c(cc3[nH]2)C(=O)N(C2CCN(C)CC2)C4=O)c(OC)c1OC	> 15000 nM
N#Cc1cc(-c2ncnc(Nc3ccc(N4CCN(C5COC5)CC4)nc3)n2)ccc1O[C@H]1CCN(C(=O)[C@@H](O)CO)C[C@H]1F	≥ 1000 nM

Annotate the molecule N#CCC1(n2cc(-c3ncnc4[nH]ccc34)cn2)CN(C2CCN(C(=O)c3ccc(Cl)s3)CC2)C1 with its measured IC50. ≤ 10 nM

----------
pIC50: −log10 of the molar value.
Here is a set of molecules with reported pIC50 for Tyrosine-protein kinase JAK2 (Homo sapiens), compiled from the literature.

MOLECULE	pIC50
N#CC1(n2c(=O)[nH]c3cnc(-c4cnc5ccc(F)cn45)nc32)CCCCC1	> 7.00
N#CCC(CC1CCN(C(=O)c2ccc(F)cc2F)CC1)n1cc(-c2ccnc(Nc3cccc(-c4cnco4)c3)n2)cn1 (racemic)	> 7.00
Cn1cc(-c2cc3nccn3c(-c3cnn(C4(CCF)CN(C(=O)C5CC5)C4)c3)n2)cn1	< 6.00
C[C@H](O)C(=O)N1CC[C@H](Oc2ccc(-c3ncnc(Nc4ccc([C@@H]5C(=O)N(C)CCN5C)cc4)n3)cc2C#N)[C@H](F)C1	≤ 6.00
Nc1cc2ccc1-c1ccnc(n1)Nc1ccc(Oc3ccncc3)c(c1)COCCCCNC2=O	< 5.00
CCCS(=O)(=O)NC(=O)[C@H]1C[C@H](NC(=O)c2nn(C)c3c2CN(c2ncnc4[nH]ccc24)CC3)C1	5.70 to 6.30

// next item, pIC50 requested
Annotate the molecule N#CCC1(n2cc(-c3ccnc(Nc4cccc(-c5cnco5)c4)n3)cn2)CN(S(=O)(=O)C2CC2)C1 with its measured pIC50. > 7.00

----------
Here is a set of molecules with reported IC50 for Tyrosine-protein kinase JAK2 (Homo sapiens), compiled from the literature.

Recorded results for 3 molecules are shown here.
MOLECULE	QUANTITY_KIND	ENDPOINT_VALUE
COc1cc(F)cc(Cl)c1COc1ccc2cc1COCCCCNC(=O)c1ccc(c(N)c1)-c1ccnc(n1)N2	IC50	1000 to 10000 nM
CC(C)(O)c1cccc(Nc2ncnc(-c3ccc(OC4CCOCC4)c(C#N)c3)n2)c1	IC50	811 nM
N#Cc1cc(-c2ncnc(Nc3cc(F)c(N4CCN(C5COC5)CC4)c(F)c3)n2)ccc1OC1CCOCC1	IC50	> 1000 nM

Quote Tyrosine-protein kinase JAK2 (Homo sapiens) IC50 for entry CCOC(=O)Cn1cc(Nc2ncc3ccn(CC4CCCCC4(F)F)c3n2)cn1 (stereo not shown) . < 100 nM

----------
Here is a set of compounds with reported pIC50 for Tyrosine-protein kinase JAK2 (Homo sapiens, UniProt O60674), compiled from the literature.
pIC50: −log10 of the molar value.

Recorded results for 6 compounds are shown here.
COMPOUND	ENDPOINT_VALUE
Cc1cnc2nc1NCCCCCNC(=O)c1ccc(cc1C(=O)O)-c1cnc(F)c(c1)N2	7.00 to 7.96
CCOC(=O)Cn1ccc(Nc2ncc3ccn(CC(CC)CC)c3n2)n1	6.00 to 7.00
CN1CC(Oc2ccc(-c3ncnc(Nc4ccc(N5CCN(C6COC6)CC5)cc4)n3)cc2C#N)CNC1=O (stereo not shown)	7.22
CN(C)CCN1CCC(N2C(=O)c3cc4nc(-c5c(NC[C@@H](O)COc6c(F)ccc(Cl)c6F)cc[nH]c5=O)[nH]c4cc3C2=O)CC1	5.30 to 6.30
N#CCC1(n2ccc(-c3ncnc4[nH]ccc34)c2)CN(C2CCN(C(=O)Nc3cnccc3C(F)(F)F)CC2)C1	7.00 to 7.30
NC(=O)c1cc(-c2cccc(Cl)c2)nc2c1[nH]c1ccc(CN3CCOCC3)cc12	9.00

Quote Tyrosine-protein kinase JAK2 (Homo sapiens, UniProt O60674) pIC50 for entry COC1CCN(C(=O)c2ccc(Nc3nccc(-c4cnn(C(CC#N)C5CC5)c4)n3)cc2)CC1 (racemic) . > 7.00
